target: Neutrophil elastase (Homo sapiens, UniProt P08246); experiment: Inhibition constant (steady state) against Human Leukocyte Elastase (HLE)
Sequence (P08246 whole entry): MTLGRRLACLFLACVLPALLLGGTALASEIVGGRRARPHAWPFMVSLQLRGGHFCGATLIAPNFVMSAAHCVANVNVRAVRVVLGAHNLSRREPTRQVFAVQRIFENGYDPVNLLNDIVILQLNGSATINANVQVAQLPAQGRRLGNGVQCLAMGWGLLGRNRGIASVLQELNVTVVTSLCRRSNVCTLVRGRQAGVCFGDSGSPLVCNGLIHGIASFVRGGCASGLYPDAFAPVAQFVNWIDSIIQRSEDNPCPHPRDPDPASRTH
measure: log10 Ki ss (log10 of the value in nM)
Scale type: logarithmic (base 10). Underlying Ki ss unit: nM.

Prompt line: Suppose we examine the compound Cn1nnnc1SCC1=C(C(=O)C(C)(C)C)N2C(=O)[C@H](Cl)C2S(=O)(=O)C1 (stereo not given in full) ; what log10 Ki ss value has been reported?
Response line: 0.85

Prompt line: Form field: reported log10 Ki ss of CO[C@H]1C(=O)N2C(C(=O)C(C)(C)C)=C(C)[C@@H](S(=O)(=O)c3ccccc3)S(=O)(=O)C12 (stereo not given in full)
Response line: 1.30

Prompt line: # input compound: CO[C@H]1C(=O)N2C(C(=O)c3ccccc3)=C(CSc3nnnn3C)CS(=O)(=O)C12 (stereo not given in full) ; wanted: its log10 Ki ss
Response line: 2.04

Prompt line: # log10 Ki ss lookup, item CC(=O)OCC1=C(C(=O)Cc2ccccc2)N2C(=O)[C@H](Cl)C2S(=O)(=O)C1 (stereo not given in full)
Response line: 2.00

Prompt line: What log10 Ki ss value was documented for this compound, CC(=O)OCC1=C(C(=O)c2ccccc2)N2C(=O)[C@H](Cl)C2S(=O)(=O)C1 (stereo not given in full) ?
Response line: 1.08

More entries:
Prompt line: Give the measured log10 Ki ss of CO[C@H]1C(=O)N2C(C(=O)C(C)(C)C)=C(C)[C@@H](Sc3ccccn3)S(=O)(=O)C12 (stereo not given in full) .
Response line: 1.00

Prompt line: Given CO[C@H]1C(=O)N2C(C(=O)c3ccccc3)=C(C)[C@@H](Sc3nnnn3C)S(=O)(=O)C12 (stereo not given in full) , state its recorded log10 Ki ss.
Response line: 3.15

Prompt line: Fill blank: measured log10 Ki ss of the compound CO[C@H]1C(=O)N2C(C(=O)C(C)(C)C)=C(COC(C)=O)CS(=O)(=O)C12 (stereo not given in full) is ____.
Response line: 1.04

Prompt line: Would you kindly share the measured log10 Ki ss for CO[C@H]1C(=O)N2C(C(=O)C(C)(C)C)=C(C)[C@@H](OC=O)S(=O)(=O)C12 (stereo not given in full) ?
Response line: 2.78

Prompt line: Returns the measured log10 Ki ss for the input compound. Input: CC1=C(C(=O)C(C)(C)C)N2C(=O)[C@H](Cl)C2S(=O)(=O)[C@@H]1Sc1nnnn1C (stereo not given in full)
Response line: 2.48

Prompt line: Consider the compound CO[C@H]1C(=O)N2C(C(=O)N3CCCC3)=C(CSc3nc(=O)c(=O)[nH]n3C)CS(=O)(=O)C12 (stereo not given in full) and give its measured log10 Ki ss.
Response line: 1.88

Prompt line: Could you share which log10 Ki ss value was measured for CO[C@H]1C(=O)N2C(C(=O)c3ccccc3)=C(C)CS(=O)(=O)C12 (stereo not given in full) ?
Response line: 3.43

Prompt line: I am curious: what log10 Ki ss value has been reported for CO[C@H]1C(=O)N2C(C(=O)N3CCC[C@H]3C(=O)O)=C(COC(C)=O)CS(=O)(=O)C12 (stereo not given in full) ?
Response line: 2.30

Prompt line: Param item = CCC(=O)C1=C(COC(C)=O)CS(=O)(=O)C2[C@@H](Cl)C(=O)N12 (stereo not given in full) ; retrieve measured log10 Ki ss.
Response line: 1.04

Prompt line: Item under review: CO[C@H]1C(=O)N2C(C(=O)C(C)(C)C)=C(C)[C@@H](OC(=O)c3ccc(CSc4nc(=O)c(=O)[nH]n4C)cc3)S(=O)(=O)C12 (stereo not given in full) . Reported log10 Ki ss?
Response line: 0.30
